Assay: Corneal permeability of riboflavin in Franz diffusion cells
Type: in vitro ADME, bovine
Design: dose or concentration left out as unconfirmed
Details: bovine, pH 7.4
metric: Papp at 240 min (×10⁻⁶ cm/s)
// return numeric value only (unit: ×10⁻⁶ cm/s, not printed)

Input line: # Papp at 240 min lookup, item Cc1cc2nc3c(=O)[nH]c(=O)nc-3n(C[C@H](O)[C@H](O)[C@H](O)CO)c2cc1C [Riboflavin, riboflavin]
Output line: 1940
